Test system: NCI/ADR-RES ovarian
Assay: NCI-60 one-dose screen, 48 h
Conditions: 10 µM unless noted
Compounds without any hit were thinned out: in the full panel of roughly 83,000, 20% have a hit. Calls of active or inactive are those of the source. The calls were made as follows: active = growth percent below 10; inactive = the rest.
Outcome (select one): yes = active, no = inactive

Example entries begin here.
CN1CCN(/C=C2\CC(C(=O)NCc3ccc(Cl)cc3Cl)NC2=O)CC1 (stereo unspecified)	no
C=C(C)[C@@H]1CCC=C2CC[C@]3(C)[C@H](CC[C@@H]4[C@@]5(C)CCCNC(C)(C)[C@@H]5CC[C@]43C)[C@H]21	no
CCN1CCN(Cc2ccc(NC(=O)c3cccc(C#Cc4cccc5[nH]nc(N)c45)c3)cc2C(F)(F)F)CC1	yes
O=CN1N=C(c2ccc(Cl)cc2)CC1c1cccc(Nc2ccnc3cc(C(F)(F)F)ccc23)c1 (stereo unspecified)	no
Oc1ccc(CNNc2ccnc3c(O)cccc23)c2cccnc12	yes
C#Cc1ccccc1NC(=O)c1sc2nc3c(cc2c1N)CCCCCC3	no
CC(=O)c1cnc(-c2ccccc2)nc1CBr	no
CSc1cccc(NC(=O)Nc2nc3c(C)cccc3s2)c1	no
COc1ccc2c(c1)C1(C(=O)N2)C(C#N)=C(c2ccccc2)Nc2c1c(-c1ccccc1)nn2-c1ccccc1 (stereo unspecified)	no
O=C1Nc2ccc(Br)cc2/C1=N\N=C/c1cn(Cc2ccccc2)c2ccccc12	no

# outcome recorded in this test, key = `C/C(=N\NC(=O)c1ccncc1)c1ccc(N)cc1`
no

# outcome recorded in this test, key = `CCCn1c(N)c(C(N)=O)sc1=S`
no

# outcome recorded in this test, key = `COc1cc2nc3c(=O)n(-c4ccc(C#N)cc4)cnn3c(=O)c2cc1OC`
no

# outcome recorded in this test, key = `CC(C)(C)CC(C)(C)Cc1ccc(OCCOCC[N+](C)(C)Cc2ccccc2)cc1`
no

# outcome recorded in this test, key = `COc1ccc(-n2cc(-c3ccc(Cl)c(Cl)c3)[nH]c2=O)cc1OC`
no

# outcome recorded in this test, key = `Nc1c(C(=O)Nc2cccc3ccccc23)sc2nc3c(cc12)CCCCC3`
no

# outcome recorded in this test, key = `CN1C(=O)c2cc(Cl)nc3c(NC(=O)c4cccc(Cl)c4)c(Cl)c(NC(=O)c4cccc(Cl)c4)c1c23`
no

# outcome recorded in this test, key = CCOC(=O)C1=C(C)n2nc(CC#N)c(C#N)c2NC1c1ccc(CC)cc1 (stereo unspecified)
no

# outcome recorded in this test, key = `O=C1c2ccccc2C(=O)c2c1oc1c2c(=O)[nH]c2ccccc21`
no

# outcome recorded in this test, key = COc1cc(C2=NN(c3ccccc3)C(c3cccc(Nc4ccnc5cc(C(F)(F)F)ccc45)c3)C2)cc(OC)c1OC (stereo unspecified)
no

# outcome recorded in this test, key = `NC(=O)CN1C(=O)c2ccccc2C1=O`
no

----------
For each of the compounds below, state its growth.
Test system: UO-31 renal
Test: NCI-60 one-dose screen, 48 h (100 = growth as untreated, 0 = no growth, -100 = all killed)
Details: 10 µM unless noted
The panel holds about 83,000 compounds, 20% with a hit somewhere; the sample as a whole holds those more often.
Answers are plain numbers, in %.

CCOC(=O)C(=Cc1c(-c2ccccc2)[nH]c2ccccc12)C(=O)OCC	33.5
COc1ccc(-c2nnc(N3CCN(C(=O)CN4CCN(c5ccccc5)CC4)CC3)nc2-c2ccc(OC)cc2)cc1	26.9
C#C[C@@]1(O)[C@@H](CO)O[C@@H](n2cc(I)c3c(N)ncnc32)[C@@H]1O	-14.8
O=C(CN1N=C(c2ccc(F)cc2)CCC1=O)Nc1nccs1	87.6
COc1cc(/C=C/C(=O)/C=C/c2cc3ccc(Cl)cc3[nH]c2=O)ccc1O	60.3
CCCCn1c2cc(OCc3cn(-c4ccc(Cl)cc4)nn3)ccc2c2ccnc(C)c21	-16.3
COc1ccccc1Nc1nnc(-c2ccc(Cl)cc2)o1	69.5
Cc1cccc2nc3c(n12)C(=O)C(=O)c1ccccc1-3	55.8
C[C@H]1[C@H](C)CC[C@]2(C(=O)OCCOCCOCC[P+](c3ccccc3)(c3ccccc3)c3ccccc3)CC[C@]3(C)C(=CC[C@@H]4[C@@]5(C)CC[C@H](OC(=O)C(Cl)Cl)C(C)(C)[C@@H]5CC[C@]43C)[C@H]12	3.95
CCC1=C[C@H]2CN(CCc3c([nH]c4ccccc34)[C@@](C(=O)OC)(c3cc4c(cc3OC)N(C)[C@H]3[C@@](O)(C(=O)OC)[C@H](OC(C)=O)[C@]5(CC)[C@@H]6C[C@@H]6CN6CC[C@]43[C@@H]65)C2)C1	14.7

Record growth per entry; entries follow.
1. CN1CCN(S(=O)(=O)O[C@@H]2C(=O)N(c3cc4c5ccccc5ccc4c4ccccc34)[C@H]2c2ccc(F)cn2)CC1
2. O=C(O)C(C(=O)O)c1cccc2ccccc12
3. C#C[C@@]1(O)[C@@H](CO)O[C@@H](n2cc(Cl)c3c(N)ncnc32)[C@@H]1O
4. CC1=C/C(=N\N=C2/C=C(C)CC(C)(C)C2)CC(C)(C)C1
5. Cc1cc(C)c(NC(=O)c2sc3nc4c(cc3c2N)CCCCCC4)c(C)c1
6. Cc1cc(C)cc(Nc2nccc(-c3c(-c4ccc(F)cc4)ncn3C3CCNCC3)n2)c1

[66.6, 88.5, -60.1, 83.7, 67.3, -28.6]

Record growth per entry; entries follow.
1. O=C(/C(=C\c1c(-c2ccccc2)[nH]c2ccccc12)S(=O)(=O)c1ccccc1)c1ccccc1
2. O=S(=O)(Nc1nccs1)c1ccc(Nc2nc(-c3ccncc3)cs2)cc1
3. O=C1NC(SCc2ccc(F)cc2)=N/C1=C/c1cccc(OCc2ccc(Cl)cc2)c1
4. COc1ccc(C2C(c3ccccc3)C(=O)N2c2cc(OC)c(OC)c(OC)c2)cc1I (centres undefined)
5. CCO/C=N/S(=O)(=O)c1cc2c(cc1Cl)NC=NS2(=O)=O
6. COc1cc(-c2nn(-c3ccc(Br)cc3)cc2CO)ccc1O

1. 60.9
2. 101
3. -38.2
4. 18.7
5. 89.1
6. 59.9

Record growth per entry; entries follow.
1. O=C1C(=O)c2c(nc3ccc(Br)cn23)-c2ccccc21
2. C=C1C(=O)O[C@H]2[C@H]1CC/C(COC(=O)c1cc3ccccc3o1)=C\CC[C@@]1(C)O[C@@H]21
3. COc1ccc(-c2[nH]c3ccc(OC)cc3c2C=C(C#N)C#N)cc1
4. N#Cc1c(-c2ccc(Cl)cc2)cc(-c2cc3ccccc3o2)nc1SCC(=O)c1ccc(Cl)cc1
5. CNCc1cccc2c1OCCOCCOCCN(CCN1CCOCC1)S(=O)(=O)c1ccc(cc1)-c1cnc(N)c(n1)C(=O)N2

1. -100
2. 3.76
3. 50.1
4. 79.8
5. 55.6

Record growth per entry; entries follow.
1. COc1cc(-c2cn(-c3ccc(Cl)c(Cl)c3)c(=O)[nH]2)cc(OC)c1OC
2. Cc1ccc(SC2c3ccc(C)cc3Oc3nc(N)c(C#N)c(N)c32)cc1 (centres undefined)
3. O=C(Nc1ccc2ncnc(Nc3cccc(C(F)(F)F)c3)c2c1)c1cccs1
4. NC(N)=NC(N)=Nc1cc2ccccc2c2ccccc12
5. Cc1cc(O)cc(O)c1N=NC1=NCCS1
6. CC1CCN(CCCCCOc2ccc3oc4ccccc4c(=O)c3c2)CC1
7. C=CCn1c(SCC(=O)Nc2ccc(C(=O)/C=C/c3cc(OC)c(OC)c(OC)c3)cc2)nnc1-c1ccccc1
8. CCOCCc1c(O)nc(SC)[nH]c1=O

[93.6, 48.5, 51.1, 32.6, 89.9, 63.1, 78.3, 83.9]

----------
Test system: M14 melanoma
Experiment: NCI-60 one-dose screen, 48 h
Settings: 10 µM unless noted
Compounds without any hit were thinned out: in the full panel of roughly 83,000, 20% have a hit. The source made the active and inactive calls. How the source made its calls: active means growth percent below 10; inactive means the rest.
Outcome (select one): t = active, f = inactive

Example entries begin here.
COc1ccc2c(c1)Oc1nc(N)c(C#N)c(N)c1C2Sc1ccc(SC)cc1 (centres undefined)	f
CC(=O)c1cnc(-c2ccccc2)nc1CBr	f
Cc1cccc(C)c1Nc1nnc(-c2ccc(F)cc2)o1	f
OCCNc1nc(NCCO)nc(Nc2ccc(C3=NN(c4cc(Cl)cc(Cl)c4)C(c4ccc(C(F)(F)F)cc4)C3)cc2)n1 (centres undefined)	f
C=C1C(=O)O[C@H]2[C@H]1CC/C(COC(=O)c1cn(C)c3ccccc13)=C\CC[C@@]1(C)O[C@@H]21	t

# outcome recorded in this test, key = `Nc1ccc(C(=O)Nc2cccc(C(=O)Nc3ccc4c(O)c(N=Nc5ccc(N=Nc6ccc(S(=O)(=O)O)cc6)cc5)c(S(=O)(=O)O)cc4c3)c2)cc1`
f

# outcome recorded in this test, key = `Cn1cc(-c2ccc3c(c2)ncn3-c2ccc(CC(=O)Nc3cc(C(C)(C)C)on3)cc2)cn1`
f

# outcome recorded in this test, key = `NC(=O)c1ccc2nc3c(n2c1)C(=O)C(=O)c1ccccc1-3`
t

# outcome recorded in this test, key = COC(=O)/C=C/c1cc(OC(C)=O)c2c(c1)C(C(=O)OC)C(c1ccc(OC(C)=O)c(OC(C)=O)c1)O2 (centres undefined)
t
